tested on: SARS-CoV-2; assay: microbe, parasite or virus in culture; assay type: functional, organism-based, Vero E6; details: Severe acute respiratory syndrome coronavirus 2, Vero C1008, 24 h
Endpoint label: EC50 (nM)
Report only the number, with the unit nM understood.

CCn1ccc(-c2cc(-c3cnn(C)c3)cc([C@@H](C)NC(=O)c3ccccc3CCC(=O)NNC(=O)/C=C/C(=O)NC34CC(C3)C4)c2)n1    6130

Incoming: Fill in the recorded EC50 for this molecule, with SARS-CoV-2 as test system: CCn1ccc(-c2cc(-c3cnn(C)c3)cc([C@@H](C)NC(=O)c3ccccc3CCC(=O)NNC(=O)/C=C/C(=O)N3CCC3)c2)n1
Outgoing: 3200

Incoming: Can you check CCn1ccc(-c2cc(-c3cnn(C)c3)cc([C@@H](C)NC(=O)c3ccccc3CCC(=O)NNC(=O)/C=C/C(=O)NC3CC3)c2)n1 next?
Outgoing: 5200

Incoming: Now consider CCn1ccc(-c2cc(-c3cnn(C)c3)cc([C@@H](C)NC(=O)c3ccccc3CCC(=O)NNC(=O)/C=C/C(=O)OC(C)(C)C)c2)n1 and answer again.
Outgoing: 99.2

Incoming: Another molecule to look at: CCn1ccc(-c2cc(-c3cnn(C)c3)cc([C@@H](C)NC(=O)c3ccccc3CCC(=O)NNC(=O)/C=C/C(=O)NC3CC(F)(F)C3)c2)n1
Outgoing: 2400

Incoming: Further, for CCn1ccc(-c2cc(-c3cnn(C)c3)cc([C@@H](C)NC(=O)c3ccccc3CCC(=O)NNC(=O)/C=C/C(=O)N3CC(F)(F)C3)c2)n1 ?
Outgoing: 185

Incoming: Consider next the molecule CCn1ccc(-c2cc(-c3cnn(C)c3)cc([C@@H](C)NC(=O)c3ccccc3CCC(=O)NNC(=O)/C=C/C(=O)N3CC(F)C3)c2)n1 in the same way.
Outgoing: 935

---

target: Replicase polyprotein 1ab (Severe acute respiratory syndrome coronavirus 2, UniProt P0DTD1)
Collected IC50 values appear next to each entry.

CCn1ccc(-c2cc(-c3cnn(C)c3)cc([C@@H](C)NC(=O)c3ccccc3CCC(=O)NNC(=O)/C=C/C(=O)OC(C)(C)C)c2)n1    100 nM
CCn1ccc(-c2cc(-c3cnn(C)c3)cc([C@@H](C)NC(=O)c3ccccc3CCC(=O)NNC(=O)/C=C/C(=O)NC3CC(F)(F)C3)c2)n1    200 nM

Incoming: May I ask what IC50 has been recorded for CCn1ccc(-c2cc(-c3cnn(C)c3)cc([C@@H](C)NC(=O)c3ccccc3CCC(=O)NNC(=O)/C=C/C(=O)NC34CC(C3)C4)c2)n1 ?
Outgoing: 100 nM

Incoming: // next record CCn1ccc(-c2cc(-c3cnn(C)c3)cc([C@@H](C)NC(=O)c3ccccc3CCC(=O)NNC(=O)/C=C/CN(C)C)c2)n1
Outgoing: > 5000 nM

Incoming: Next compound: CCn1ccc(-c2cc(-c3cnn(C)c3)cc([C@@H](C)NC(=O)c3ccccc3CNC(=O)CNC(=O)/C=C/C(=O)N3CC(F)(F)C3)c2)n1
Outgoing: 500 nM

Incoming: Continue with CCn1ccc(-c2cc(-c3cnn(C)c3)cc([C@@H](C)NC(=O)c3ccccc3CCC(=O)NNC(=O)/C=C/C(=O)N(C)C)c2)n1
Outgoing: 700 nM

Incoming: And what about the compound CCn1ccc(-c2cc(-c3cnn(C)c3)cc([C@@H](C)NC(=O)c3ccccc3CCC(=O)NNC(=O)C(Cl)Cl)c2)n1 ?
Outgoing: 2200 nM

Incoming: Try this compound too: CCn1ccc(-c2cc(-c3cnn(C)c3)cc([C@@H](C)NC(=O)c3ccccc3CCC(=O)NNC(=O)/C=C/C(=O)N3CC(F)(F)C3)c2)n1
Outgoing: 100 nM

Incoming: Moving on to C=CC(=O)NNC(=O)CCc1ccccc1C(=O)N[C@H](C)c1cc(-c2cnn(C)c2)cc(-c2ccn(CC)n2)c1
Outgoing: 3100 nM

Incoming: Also need CCn1ccc(-c2cc(-c3cnn(C)c3)cc([C@@H](C)NC(=O)c3ccccc3CCC(=O)NNC(=O)/C=C/C(=O)N3CCC3)c2)n1 , thanks.
Outgoing: 100 nM

Incoming: Next entry: C=CS(=O)(=O)NNC(=O)CCc1ccccc1C(=O)N[C@H](C)c1cc(-c2cnn(C)c2)cc(-c2ccn(CC)n2)c1
Outgoing: 300 nM

Incoming: Queued: CCn1ccc(-c2cc(-c3cnn(C)c3)cc([C@@H](C)NC(=O)c3ccccc3CCC(=O)NNC(=O)/C=C/C(=O)N3CC(C(F)(F)F)C3)c2)n1
Outgoing: 100 nM

Incoming: # repeat for C#CCNC(=O)CCc1ccccc1C(=O)N[C@H](C)c1cc(-c2cnn(C)c2)cc(-c2ccn(CC)n2)c1
Outgoing: 5000 nM

Incoming: Input CCn1ccc(-c2cc(-c3cnn(C)c3)cc(C3(NC(=O)c4ccccc4CNC(=O)CNC(=O)/C=C/C(=O)N4CC(F)(F)C4)CC3)c2)n1
Outgoing: 1600 nM

The reported measurements were obtained from ChEMBL document CHEMBL6092219.
